Tested on: lipopolysaccharide-stimulated macrophages (RAW 264.7)
Assay: Inhibition of nitric oxide production (Griess reagent)
Type: cell-based, murine
Conditions: Mus musculus, RAW264.7; LPS 100 ng/mL, 24 h; highest tested concentration 100 µM; read-out: NO Production IC50
Protocol: The anti-inflammatory activity of the tested flavonolignans was determined as the ability to reduce nitric oxide production by murine macrophages (RAW 264.7) stimulated by bacterial lipopolysaccharides, as previously described. […] For the experiment, 1 × 10^6 cells/mL was seeded into the 96-well plate (100 µL/well). […] The absorbance was measured after 15 min at 540 nm by the SpectraMax i3x microplate reader. Cell viability was determined by resazurin assay.
pIC50: −log10 of the molar value.
compounds and their reported pIC50
measurement kind: pIC50

* O=C1c2c(O)c(Br)c(O)c(Br)c2O[C@H](c2ccc(O)c(O)c2)[C@H]1O | 4.21
* COc1cc([C@@H]2Oc3cc([C@H]4Oc5cc(O)cc(O)c5C(=O)[C@@H]4O)ccc3O[C@H]2CO)ccc1O [3b, silybin B, reference compound] | 4.25
* COc1cc([C@H]2Oc3cc([C@H]4Oc5c(Br)c(O)c(Br)c(O)c5C(=O)[C@@H]4O)ccc3O[C@@H]2CO)ccc1O | 4.13
* COc1cc([C@@H]2Oc3cc([C@H]4Oc5c(Br)c(O)c(Br)c(O)c5C(=O)[C@@H]4O)ccc3O[C@H]2CO)ccc1O | 4.04

###

test system: Vibrio campbellii BAA 1119 (AI-2); assay: microbe, parasite or virus in culture; format: cell-based; details: Vibrio campbellii, BAA1119, 16 h, read-out: EC50 (concentration that halved the communication)
Threshold check on EC50: strictly below 10 µM is 1 (yes); on or above 10 µM is 0 (no).

- COc1cc([C@H]2Oc3cc([C@H]4Oc5c(Br)c(O)c(Br)c(O)c5C(=O)[C@@H]4O)ccc3O[C@@H]2CO)cc(Br)c1O: 0 (no)
- O=c1[nH]cc(F)c(=O)[nH]1 [5-Fluorouracil, reference compound]: 1 (yes)
- O=c1c(O)c(-c2ccc(O)c(O)c2)oc2cc(O)cc(O)c12 [compound 2, quercetin, reference compound]: 1 (yes)
- COc1cc([C@@H]2Oc3cc([C@H]4Oc5c(Br)c(O)c(Br)c(O)c5C(=O)[C@@H]4O)ccc3O[C@H]2CO)ccc1O: 0 (no)
- COc1cc(C2Oc3cc(-c4oc5c(Br)c(O)cc(O)c5c(=O)c4O)ccc3OC2CO)ccc1O (stereo not shown) [compound 16, 8-bromo-2,3-dehydrosilybin AB]: 1 (yes)
- COc1cc([C@@H]2Oc3cc([C@H]4Oc5cc(O)c(Br)c(O)c5C(=O)[C@@H]4O)ccc3O[C@H]2CO)ccc1O: 0 (no)
- COc1cc([C@@H]2Oc3c(O)cc(-c4oc5cc(O)cc(O)c5c(=O)c4O)cc3[C@H]2CO)ccc1O [compound 6, 2,3-dehydrosilychristin A, reference compound]: 0 (no)
- O=C1c2c(cc(O)c(Br)c2O)O[C@H](c2ccc(O)c(O)c2)[C@H]1O: 0 (no)
- COc1cc([C@@H]2Oc3cc([C@H]4Oc5cc(O)c(Cl)c(O)c5C(=O)[C@@H]4O)ccc3O[C@H]2CO)ccc1O: 1 (yes)
- COc1cc([C@H]2Oc3cc([C@H]4Oc5c(Br)c(O)c(Br)c(O)c5C(=O)[C@@H]4O)ccc3O[C@@H]2CO)ccc1O: 0 (no)
- COc1cc([C@H]2Oc3cc([C@H]4Oc5cc(O)cc(O)c5C(=O)[C@@H]4O)ccc3O[C@@H]2CO)ccc1O [3a, silybin A, reference compound]: 0 (no)

// provenance: paper PMC9738062
